Test: Concentration to decrease mitochondrial dehydrogenase vs concentration to decrease TEER (IC50/EC50)
Format: functional
measurement_label: Potency index

Would you please look over these solved cases?
compound	Potency index
CCCCCCCCCCCCCCCC(=O)NCC(COP(=O)([O-])OCC[N+](C)(C)C)OCCCCCC (centres undefined)	0.6
CCCCCCCCCC(=O)NCC(COP(=O)([O-])OCC[N+](C)(C)C)OCCCC (centres undefined)	1.24
CCCCCCCCCCCCCC(=O)NCC(COP(=O)([O-])OCC[N+](C)(C)C)OCC (centres undefined)	2
CCCCCCCCCC(=O)NCC(COP(=O)([O-])OCC[N+](C)(C)C)OCCCCCCCC (centres undefined)	1.27
CCCCCCCCCCCCOC(CNC(C)=O)COP(=O)([O-])OCC[N+](C)(C)C (centres undefined)	1.72

(A) CCCCCCCCCCCC(=O)NCC(COP(=O)([O-])OCC[N+](C)(C)C)OCCCCCC (centres undefined)
(B) CCCCCCCCCC(=O)NCC(COP(=O)([O-])OCC[N+](C)(C)C)OCCCCCC (centres undefined)
// query Between item A and item B , which reported Potency index is smaller? Your choice should be expressed through its label.
// result A
(A: 0.84, B: 2.38)

* * *

System: Caco-2
Experiment: Decrease in the trans-epithelial electrical resistance(TEER) in Caco-2 cell monolayers
Format: functional, cell-based
Settings: Homo sapiens
pEC50: −log10 of the molar value.
measurement_label: pEC50

Would you please look over these solved cases?
compound	pEC50
CCCCCCCCCCCCCCCC(=O)NCC(COP(=O)([O-])OCC[N+](C)(C)C)OCCCCCCCCCC (centres undefined)	< 2.70
CCCCOC(CNC(=O)CCC)COP(=O)([O-])OCC[N+](C)(C)C (centres undefined)	< 2.30
CCCCCCCCCCCCCCCC(=O)NCC(COP(=O)([O-])OCC[N+](C)(C)C)OCCCCCCCCCCCC (centres undefined)	< 3.00

Field: next compound
// query Bench note: what pEC50 did CCCCCCCC(=O)NCC(COP(=O)([O-])OCC[N+](C)(C)C)OCCCC (centres undefined) show?
// result < 2.30

* * *

System: Caco-2
Assay: Decrease in the trans-epithelial electrical resistance(TEER) in Caco-2 cell monolayers
Assay type: functional, cell-based
Details: Homo sapiens
pEC50: −log10 of the molar value.
compounds and their reported pEC50

compound	target	pEC50
CCCCCCCCCCCCCCOC(CNC(=O)CCCCCCCCC)COP(=O)([O-])OCC[N+](C)(C)C (centres undefined)	Caco-2	< 2.70
CCCCCCCC(=O)NCC(COP(=O)([O-])OCC[N+](C)(C)C)OCCCCCC (centres undefined)	Caco-2	< 2.30
CCCCCCCCCCCCCCCCOC(CNC(=O)CCCCCCCCC)COP(=O)([O-])OCC[N+](C)(C)C (centres undefined)	Caco-2	< 2.70

Field: next compound
// query Bench note: what pEC50 did CCCCCCCCCCCCCCCC(=O)NCC(COP(=O)([O-])OCC[N+](C)(C)C)OCCCCCCCC (centres undefined) show?
// result < 2.30
